Listed compounds paired with reported inhibition at 10 µM
- Assayed system: human OX2 receptor (Homo sapiens, UniProt O43614)
- Construct: expressed in transfected cells; host or cells: CHO cells
- Sequence (O43614 whole entry): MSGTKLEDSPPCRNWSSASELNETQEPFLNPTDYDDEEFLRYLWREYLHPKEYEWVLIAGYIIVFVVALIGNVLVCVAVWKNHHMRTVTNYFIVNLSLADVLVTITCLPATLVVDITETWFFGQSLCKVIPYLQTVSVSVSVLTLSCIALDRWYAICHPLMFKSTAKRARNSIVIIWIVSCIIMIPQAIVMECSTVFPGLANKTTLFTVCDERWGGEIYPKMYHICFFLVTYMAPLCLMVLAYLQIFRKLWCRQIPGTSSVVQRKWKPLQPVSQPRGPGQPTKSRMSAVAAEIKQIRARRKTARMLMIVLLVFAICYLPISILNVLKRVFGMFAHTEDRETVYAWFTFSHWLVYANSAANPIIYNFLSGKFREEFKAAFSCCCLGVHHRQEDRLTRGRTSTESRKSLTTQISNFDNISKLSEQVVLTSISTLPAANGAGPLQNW
- Assay procedure: Measurement of orexin receptor antagonistic activity (calcium fluorescence, FLIPRtetra)
- Format: cell-based
- Conditions: CHO, read-out: Human Orexin2 receptor inhibition (at 10 μM)
State just the number; it will be interpreted in %.

Known inhibition at 10 µM results, listed for orientation:
Compound | Units symbol | Observed
Cc1cc(C)nc(N2CCN(C(=O)c3ccc(Cl)cc3Cl)CCO2)n1 | % | 65
Cc1cc(C)nc(N2CCN(C(=O)c3cc(C)ccc3-n3nccn3)[C@H](C)CO2)c1 | % | 97
Cc1cc(C)nc(N2CCN(C(=O)c3cccc4nsnc34)CCO2)n1 | % | 42
Cc1cc(C)nc(N2CCN(C(=O)c3cccc4c3OC(C)(C)C4)CCO2)n1 | % | 75

Exam item: Please look up its inhibition at 10 µM: `COc1ccc(Cl)cc1C(=O)N1CCON(c2nc(C)cc(C)n2)CC1`
Marked response: 99

Exam item: Please look up its inhibition at 10 µM: `Cc1cc(C)nc(N2CCN(C(=O)c3cccc4ccn(C)c34)CCO2)n1`
Marked response: 99

Exam item: Please look up its inhibition at 10 µM: `COc1cc2c(cc1C(=O)N1CCON(c3nc(C)cc(C)n3)CC1)CCC2`
Marked response: 69

Exam item: Please look up its inhibition at 10 µM: `Cc1cc(C)nc(N2CCN(C(=O)c3ccccc3-n3cccc3)CCO2)n1`
Marked response: 94

Exam item: Please look up its inhibition at 10 µM: `Cc1cc(C)nc(N2CCN(C(=O)c3ccccc3C)CCO2)n1`
Marked response: 58

Exam item: Please look up its inhibition at 10 µM: `Cc1ccc(-n2nccn2)c(C(=O)N2CCN(c3cn4ccccc4n3)OC[C@H]2C)c1`
Marked response: 56

Exam item: Please look up its inhibition at 10 µM: `Cc1ccc(-n2nccn2)c(C(=O)N2CCN(c3cncc(Cl)c3)OC[C@H]2C)c1`
Marked response: 70

Exam item: Please look up its inhibition at 10 µM: `COc1cccc(C(=O)N2CCON(c3nc(C)cc(C)n3)CC2)c1Cl`
Marked response: 3

Exam item: Please look up its inhibition at 10 µM: `Cc1ccc(-n2nccn2)c(C(=O)N2CCN(c3cc(C(F)F)ccn3)OC[C@H]2C)c1`
Marked response: 98

Exam item: Please look up its inhibition at 10 µM: `Cc1cncc(N2CCN(C(=O)c3cc(C)ccc3-n3nccn3)[C@H](C)CO2)c1`
Marked response: 38

Exam item: Please look up its inhibition at 10 µM: `Cc1cc(C)nc(N2CCN(C(=O)c3cccc4c3C(=O)N(C)C4)CCO2)n1`
Marked response: 22

Exam item: Please look up its inhibition at 10 µM: `COc1c(C#N)cccc1C(=O)N1CCON(c2nc(C)cc(C)n2)CC1`
Marked response: 49

Exam item: Please look up its inhibition at 10 µM: `Cc1cc(C)nc(N2CCN(C(=O)c3cccc4nc(C)oc34)CCO2)n1`
Marked response: 17

Exam item: Please look up its inhibition at 10 µM: `Cc1ccc(N2CCN(C(=O)c3cc(C)ccc3-n3nccn3)[C@H](C)CO2)nc1`
Marked response: 99

###

Listed molecules paired with reported inhibition at 10 µM
- Assayed system: human OX1 receptor (Homo sapiens, UniProt O43613)
- Construct: expressed in transfected cells; host or cells: CHO cells
- Sequence (O43613 whole entry): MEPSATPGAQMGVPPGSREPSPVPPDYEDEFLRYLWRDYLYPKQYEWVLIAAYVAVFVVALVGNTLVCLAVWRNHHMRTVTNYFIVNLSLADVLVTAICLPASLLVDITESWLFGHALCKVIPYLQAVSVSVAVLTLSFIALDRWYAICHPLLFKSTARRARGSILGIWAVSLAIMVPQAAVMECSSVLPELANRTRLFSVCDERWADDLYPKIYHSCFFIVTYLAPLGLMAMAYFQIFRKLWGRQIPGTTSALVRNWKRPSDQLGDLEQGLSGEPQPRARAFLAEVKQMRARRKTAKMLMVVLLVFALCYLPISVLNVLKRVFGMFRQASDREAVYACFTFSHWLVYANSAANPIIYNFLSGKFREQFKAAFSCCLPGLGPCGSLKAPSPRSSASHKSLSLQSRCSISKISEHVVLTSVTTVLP
- Assay procedure: Measurement of orexin receptor antagonistic activity (calcium fluorescence, FLIPRtetra)
- Type: cell-based
- Conditions: CHO, 10 μM test compound; CHO cells expressing human OX1 receptor; OX-A 1 nM; read-out: Human Orexin1 receptor inhibition (at 10 μM)
State just the number; it will be interpreted in %.

Known inhibition at 10 µM results, listed for orientation:
Molecule | Units symbol | inhibition at 10 µM
Cc1cc(N2C[C@H](C)N(C(=O)c3ccccc3-n3nccn3)[C@H](C)CO2)nc(C)n1 | % | 103
Cc1cc(N2C[C@H](C)N(C(=O)c3ccccc3-c3nccs3)[C@H](C)CO2)nc(C)n1 | % | 101
COc1cncc(N2CCN(C(=O)c3cc(C)ccc3-n3nccn3)[C@H](C)CO2)c1 | % | 10
C[C@@H]1CON(c2ncnc3ccn(C)c23)CCN1C(=O)c1cc(F)ccc1-n1nccn1 | % | 24

Exam item: Please look up its inhibition at 10 µM: `Cc1cc(C)nc(N2CCN(C(=O)c3cccc4cccnc34)CCO2)n1`
Marked response: 13

Exam item: Please look up its inhibition at 10 µM: `COc1cccc(N2CCN(C(=O)c3cc(C)ccc3-n3nccn3)[C@H](C)CO2)n1`
Marked response: 96

Exam item: Please look up its inhibition at 10 µM: `C[C@H]1CN(C(=O)c2ccccc2-n2nccn2)CCN(c2cc(C(F)F)nc(C3CC3)n2)O1`
Marked response: 100

Where do these numbers come from? They come from patent US10131653B2.
